target: KCNQ2/3 channels (Homo sapiens, UniProt O43525+O43526); construct: expressed in transfected cells; experiment: Fluorescence assay using a voltage sensitive dye (fluorimetry); assay type: cell-based; conditions: CHO-K1 cells expressing KCNQ2/3; IC50 where % efficacy is negative; read-out: Fluorimetry EC50/IC50
Sequence (O43526 whole entry): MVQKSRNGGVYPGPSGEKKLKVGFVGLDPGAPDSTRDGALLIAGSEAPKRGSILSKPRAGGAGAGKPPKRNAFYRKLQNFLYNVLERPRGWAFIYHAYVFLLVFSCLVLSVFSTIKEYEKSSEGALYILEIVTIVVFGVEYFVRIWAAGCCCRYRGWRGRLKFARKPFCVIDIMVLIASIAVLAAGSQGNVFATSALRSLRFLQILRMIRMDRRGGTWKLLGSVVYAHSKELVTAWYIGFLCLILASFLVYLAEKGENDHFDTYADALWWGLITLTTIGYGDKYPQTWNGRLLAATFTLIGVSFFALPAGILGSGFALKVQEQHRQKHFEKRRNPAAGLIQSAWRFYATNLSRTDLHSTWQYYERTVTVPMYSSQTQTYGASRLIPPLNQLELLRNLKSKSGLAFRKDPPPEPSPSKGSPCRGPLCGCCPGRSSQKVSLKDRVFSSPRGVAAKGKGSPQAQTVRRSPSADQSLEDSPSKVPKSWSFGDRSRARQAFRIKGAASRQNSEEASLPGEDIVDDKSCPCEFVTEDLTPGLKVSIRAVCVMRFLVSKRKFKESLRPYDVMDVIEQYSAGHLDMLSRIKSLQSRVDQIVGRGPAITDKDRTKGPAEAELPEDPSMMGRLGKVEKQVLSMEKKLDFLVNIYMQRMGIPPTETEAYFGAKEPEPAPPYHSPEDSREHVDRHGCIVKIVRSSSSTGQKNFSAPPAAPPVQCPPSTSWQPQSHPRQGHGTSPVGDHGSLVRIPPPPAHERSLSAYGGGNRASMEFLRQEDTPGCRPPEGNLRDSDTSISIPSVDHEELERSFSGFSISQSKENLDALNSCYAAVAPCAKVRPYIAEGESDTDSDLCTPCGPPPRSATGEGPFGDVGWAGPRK
Sequence (O43525 whole entry): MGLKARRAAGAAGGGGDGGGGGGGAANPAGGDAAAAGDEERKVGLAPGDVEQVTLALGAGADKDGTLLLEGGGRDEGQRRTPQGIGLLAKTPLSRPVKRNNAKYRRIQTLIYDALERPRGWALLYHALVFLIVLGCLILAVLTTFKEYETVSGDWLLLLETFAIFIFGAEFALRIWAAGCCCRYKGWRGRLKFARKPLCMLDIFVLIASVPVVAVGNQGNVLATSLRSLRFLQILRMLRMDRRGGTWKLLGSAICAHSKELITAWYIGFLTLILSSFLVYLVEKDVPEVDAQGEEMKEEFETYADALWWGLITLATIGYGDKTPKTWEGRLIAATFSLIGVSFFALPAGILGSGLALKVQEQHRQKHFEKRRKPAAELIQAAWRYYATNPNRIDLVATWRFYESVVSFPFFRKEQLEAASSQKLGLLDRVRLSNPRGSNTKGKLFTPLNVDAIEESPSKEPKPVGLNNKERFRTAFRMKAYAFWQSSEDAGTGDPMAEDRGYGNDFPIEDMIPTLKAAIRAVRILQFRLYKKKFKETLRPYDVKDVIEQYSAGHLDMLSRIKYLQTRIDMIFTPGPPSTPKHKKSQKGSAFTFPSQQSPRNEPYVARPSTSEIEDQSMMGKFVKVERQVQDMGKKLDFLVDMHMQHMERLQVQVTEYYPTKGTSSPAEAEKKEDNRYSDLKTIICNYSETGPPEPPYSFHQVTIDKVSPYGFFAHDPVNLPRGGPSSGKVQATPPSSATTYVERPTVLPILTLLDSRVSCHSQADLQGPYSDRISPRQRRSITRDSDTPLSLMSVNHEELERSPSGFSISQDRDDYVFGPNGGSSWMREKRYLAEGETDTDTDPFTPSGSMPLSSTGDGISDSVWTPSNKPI
pEC50: −log10 of the molar value.
Metric: pEC50

>  <Compound>
CCSc1nc(N2CCOCC2)cc(C)c1C(=O)NCc1cccc(F)n1 [Example 45]

>  <Metric>
pEC50

>  <Value>
5.50

$$$$
>  <Compound>
CCC(C)c1nc(N2CCOC[C@H]2C)cc(C)c1C(=O)NCCCC(C)(C)C (some centres unmarked) [Example 195]

>  <Metric>
pEC50

>  <Value>
7.89

$$$$

[a] COC[C@H]1COCCN1c1cc(C)c(C(=O)NCc2ccc(Cl)cc2)c(C(C)C)n1 [Example 277]
[b] CCCc1nc(N2CCOC[C@H]2C)cc(C)c1C(=O)NCc1ccc(Cl)cc1 [Example 266]
[c] CCOc1nc(N2CCOC[C@H]2C)cc(C)c1C(=O)NCc1ccc(F)cc1 [Example 182]
Qu. Write the entries in order, lowest recorded pEC50 first. Please list the labels according to the requested order.
Ans. c, b, a
(c: 6.90, b: 7.24, a: 7.77)

---

target: KCNQ2/3 channels (Homo sapiens, UniProt O43525+O43526); construct: expressed in transfected cells; test: Fluorescence assay using a voltage sensitive dye (fluorimetry); type: cell-based; details: CHO-K1 cells expressing KCNQ2/3; IC50 where % efficacy is negative; read-out: Fluorimetry EC50/IC50
Metric: EC50 (nM)

>  <Compound>
Cc1cc(N2CCOCC2)nc(N(C)C)c1C(=O)NCCCC(F)(F)F [Example 246]

>  <Metric>
EC50

>  <Value>
4100

$$$$
>  <Compound>
CCSc1nc(N2CCCOCC2)cc(C)c1C(=O)NCc1cccc(F)c1 [Example 96]

>  <Metric>
EC50

>  <Value>
1100

$$$$
>  <Compound>
CCSc1nc(N(C)C2CCC(OC)CC2)cc(C)c1C(=O)NCc1cccc(F)c1 (centres unmarked) [Example 259]

>  <Metric>
EC50

>  <Value>
298

$$$$
>  <Compound>
CCSc1nc(N2CCOCC2)cc(C)c1C(=O)NCc1ccc(C(F)(F)F)cc1 [Example 60]

>  <Metric>
EC50

>  <Value>
126

$$$$
>  <Compound>
CCSc1nc(N2CCOC[C@@H]2COC)cc(C)c1C(=O)NCc1ccc(Cl)cc1 [Example 257]

>  <Metric>
EC50

>  <Value>
23

$$$$

[A] CCSc1nc(N2CCOC[C@H]2CO)cc(C)c1C(=O)NCc1cccc(F)c1 [Example 264]
[B] CCCCSc1nc(N2CCOCC2)cc(C)c1C(=O)NCc1cccc(F)c1 [Example 57]
[C] COc1nc(N2CCOC[C@H]2C)cc(C)c1C(=O)NCc1ccc(Cl)cc1 [Example 215]
[D] CCSc1nc(N2CCOCC2)cc(C)c1C(=O)NCCC(O)c1ccccc1 (centres unmarked) [Example 227]
[E] CCSc1nc(N2CC(C)OC(C)C2)cc(C)c1C(=O)NCc1cccc(F)c1 (centres unmarked) [Example 66]
Qu. Put the items in sequence by EC50, from largest down. Please list the labels according to the requested order.
Ans. D, A, E, C, B
(D: 4190 nM, A: 1560 nM, E: 983 nM, C: 147 nM, B: 47 nM)

[P] CCSc1nc(N2CCn3cc(C(F)(F)F)nc3C2)cc(C)c1C(=O)NCc1cccc(F)c1 [Example 243]
[Q] CCSc1nc(N2CCCC2)cc(C)c1C(=O)NCc1cccc(F)c1 [Example 25]
[R] CCSc1nc(N(C)Cc2cccnc2)cc(C)c1C(=O)NCc1cccc(F)c1 [Example 119]
[S] Cc1cc(N2CCOCC2)nc(N(C)C)c1C(=O)NCCCC(C)(C)C [Example 245]
[T] CCSc1nc(N2CCOC[C@H]2C)cc(C)c1C(=O)NCc1cccc(F)c1 [Example 295]
Qu. Write the entries in order, lowest recorded EC50 first. Please list the labels according to the requested order.
Ans. T, Q, S, P, R
(T: 50 nM, Q: 211 nM, S: 345 nM, P: 1280 nM, R: 2420 nM)

[I] CCSc1nc(N2CCC2)cc(C)c1C(=O)NCc1cccc(F)c1 [Example 299]
[II] CCSc1nc(N2CCO[C@H](CO)C2)cc(C)c1C(=O)NCc1cccc(F)c1 [Example 291]
[III] CCSc1nc(N2CCOCC2)cc(C)c1C(=O)NCc1ccccc1-c1ccc(F)cc1 [Example 71]
Qu. Put the items in sequence by EC50, from largest down. Please list the labels according to the requested order.
Ans. II, I, III
(II: 7950 nM, I: 920 nM, III: 275 nM)

[a] CCSc1nc(N2CCC(O)CC2)cc(C)c1C(=O)NCc1cccc(F)c1 [Example 15]
[b] CCSc1nc(N2CCO[C@H](COC)C2)cc(C)c1C(=O)NCc1ccc(Cl)cc1 [Example 255]
[c] CSc1nc(N2CCOCC2)cc(C)c1C(=O)NCc1ccc(F)cc1 [Example 154]
[d] CCSc1nc(N2CCOC[C@H]2C)cc(C)c1C(=O)NCc1cc(F)cc(F)c1 [Example 233]
Qu. Put the items in sequence by EC50, from largest down. Please list the labels according to the requested order.
Ans. a, c, b, d

---

target: KCNQ2/3 channels (Homo sapiens, UniProt O43525+O43526); construct: expressed in transfected cells; assay: Fluorescence assay using a voltage sensitive dye (fluorimetry); assay type: cell-based; settings: CHO-K1 cells expressing KCNQ2/3; IC50 where % efficacy is negative; read-out: Fluorimetry EC50/IC50
Metric: EC50 (nM)

>  <Compound>
CCSc1nc(N2C3CCC2COC3)cc(C)c1C(=O)NCc1cccc(F)c1 [Example 345]

>  <Units>
nM

>  <Value>
122

$$$$

[I] COc1nc(N2CCOCC2)cc(C)c1C(=O)NCc1ccc(C(F)(F)F)cc1 [Example 117]
[II] CCSc1nc(N2CCOC[C@H]2COC)cc(C)c1C(=O)NCc1ccc(Cl)cc1 [Example 256]
[III] Cc1cc(N2CCOCC2)nc(C2CC2)c1C(=O)NCCCC(C)(C)C [Example 328]
Qu. Put the items in sequence by EC50, from largest down. Please list the labels according to the requested order.
Ans. I, II, III
(I: 268 nM, II: 101 nM, III: 44 nM)
